# Assay method text: AUC (0 to infinity) in guinea pig at 40 mg/kg, administered via intratracheal insufflation by HPLC method
# Format: ADME, organism-based, Cavia porcellus
# Parameters: time infinity, dose 40 mg/kg, route endotracheal
# Experimental conditions: plasma, inhaled or intranasal
Attribute measured: AUC(0-inf) (ng·h/mL)

chemical_structure=O=[N+]([O-])c1cn2c(n1)OC[C@@H](OCc1ccc(OC(F)(F)F)cc1)C2 unit_abbreviation=ng·h/mL measured=32300

----------
# Assay method text: Tmax in guinea pig at 60 mg/kg, administered via intratracheal insufflation by HPLC method
# Type: ADME, organism-based, Cavia porcellus
# Set-up: dose 60 mg/kg, route endotracheal
# Experimental conditions: in vivo, inhaled or intranasal
Attribute measured: Tmax (h)

compound="O=[N+]([O-])c1cn2c(n1)OC[C@@H](OCc1ccc(OC(F)(F)F)cc1)C2 [PRETOMANID]" measured=3.6
